// data source = patent EP4806891A1

target-desc: HEK-Blue-hTLR9 cells (Homo sapiens)
Sequence (Q9NR96 26-1032): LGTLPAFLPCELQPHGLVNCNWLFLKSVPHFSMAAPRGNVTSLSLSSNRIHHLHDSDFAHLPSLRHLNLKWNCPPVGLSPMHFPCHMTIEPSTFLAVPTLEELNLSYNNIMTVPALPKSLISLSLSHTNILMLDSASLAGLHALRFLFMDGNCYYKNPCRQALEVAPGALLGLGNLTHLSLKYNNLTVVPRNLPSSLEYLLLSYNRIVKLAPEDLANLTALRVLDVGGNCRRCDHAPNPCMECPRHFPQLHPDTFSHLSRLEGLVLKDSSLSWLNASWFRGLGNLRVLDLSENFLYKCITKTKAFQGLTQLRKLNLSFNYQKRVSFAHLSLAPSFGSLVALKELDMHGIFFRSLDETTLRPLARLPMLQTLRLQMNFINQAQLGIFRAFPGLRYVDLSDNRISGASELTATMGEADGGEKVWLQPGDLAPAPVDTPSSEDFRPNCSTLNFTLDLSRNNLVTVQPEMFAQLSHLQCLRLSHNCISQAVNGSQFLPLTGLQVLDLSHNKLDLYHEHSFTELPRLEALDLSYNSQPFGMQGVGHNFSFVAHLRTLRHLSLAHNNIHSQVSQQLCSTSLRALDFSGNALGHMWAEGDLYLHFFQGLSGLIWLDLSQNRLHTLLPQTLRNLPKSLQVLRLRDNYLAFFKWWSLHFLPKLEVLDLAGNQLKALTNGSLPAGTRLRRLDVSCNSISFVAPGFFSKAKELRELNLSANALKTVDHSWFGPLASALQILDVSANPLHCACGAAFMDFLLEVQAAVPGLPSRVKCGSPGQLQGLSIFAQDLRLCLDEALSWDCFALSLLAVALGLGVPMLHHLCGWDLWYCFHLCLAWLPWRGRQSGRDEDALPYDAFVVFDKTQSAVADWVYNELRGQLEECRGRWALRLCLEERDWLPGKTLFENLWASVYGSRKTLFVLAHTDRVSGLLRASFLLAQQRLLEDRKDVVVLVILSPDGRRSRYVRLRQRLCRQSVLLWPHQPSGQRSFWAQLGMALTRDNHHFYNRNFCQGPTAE
protocol-text: HEK-Blue-hTLR9 cell inhibition assay
test-parameters: ODN2006 1 µM, 16 h, OD 620 nm, read-out: TLR9 IC50

molecule: CN1CCC(c2nnc([C@]34CN(c5ccc(C#N)c6ncccc56)C[C@@]3(C(F)(F)F)C4)o2)C(F)C1 (some centres unmarked)
IC50: > 1000 nM
--
molecule: N#Cc1ccc(N2C[C@]3(c4nnc([C@H]5CC[C@H](N)CC5)o4)C[C@]3(C(F)(F)F)C2)c2cccnc12
IC50: > 1000 nM
--
molecule: CN1CC(Cc2nnc([C@]34CN(c5ccc(C#N)n6ncc(F)c56)C[C@@]3(C(F)(F)F)C4)o2)C1
IC50: > 1000 nM
--
molecule: CN1CCC(C)(c2nnc([C@]34CN(c5ccc(C#N)c6ncccc56)C[C@@]3(C(F)(F)F)C4)o2)CC1
IC50: > 1000 nM
--
molecule: CN(C)CC#Cc1nnc([C@]23CN(c4ccc(C#N)c5ncccc45)C[C@@]2(C(F)(F)F)C3)o1
IC50: < 1000 nM
--
molecule: CN1CC(Cc2nnc([C@]34CN(c5ccc(C(F)(F)F)c6ncccc56)C[C@@]3(C(F)(F)F)C4)o2)C1
IC50: > 1000 nM
--
molecule: CN1CCC(n2cnc([C@]34CN(c5ccc(C#N)c6ncccc56)C[C@@]3(C(F)(F)F)C4)n2)CC1
IC50: > 1000 nM
--
molecule: CN1CCC(Oc2nnc([C@]34CN(c5ccc(OC(F)(F)F)c6ncccc56)C[C@@]3(C(F)(F)F)C4)o2)CC1
IC50: > 10000 nM
--
molecule: FC(F)(F)Oc1ccc(N2C[C@]3(c4nnc(C5(F)CCNCC5)o4)C[C@]3(C(F)(F)F)C2)c2cccnc12
IC50: > 1000 nM
--
molecule: CN1[C@@H]2CC[C@H]1C[C@H](c1nnc([C@]34CN(c5ccc(C(F)(F)F)c6ncccc56)C[C@@]3(C(F)(F)F)C4)o1)C2
IC50: > 1000 nM
--
molecule: CC1(C)CC(Cc2nnc([C@]34CN(c5ccc(C#N)c6ncccc56)C[C@@]3(C(F)(F)F)C4)o2)CC(C)(C)N1
IC50: > 1000 nM
--
molecule: N#Cc1ccc(N2C[C@]3(c4nnc(CC5CNC5)o4)C[C@]3(C(F)(F)F)C2)c2cccnc12
IC50: > 1000 nM
--
molecule: N#Cc1ccc(N2C[C@]3(c4nnc(C5CC6(CNC6)C5)o4)C[C@]3(C(F)(F)F)C2)c2cccnc12
IC50: < 1000 nM
--
molecule: CN1CC(c2nnc([C@]34CN(c5ccc(C(F)(F)F)c6ncccc56)C[C@@]3(C(F)(F)F)C4)o2)C1
IC50: > 1000 nM
